measured quantity: melting point

1) COC(=O)c1ccc(C#CC(=O)c2ccc3c(c2)C(C)(C)CCC3)cc1O : 114 to 116 °C
2) CCn1cc(C(=O)NCc2ccc(Cl)cc2)c(=O)c2cc(CN(C)C[C@@H](O)c3ccccc3)sc21 : 100 to 102 °C
3) CC1Oc2ccc(CCl)cc2NC1=O (stereo unspecified) : 162 to 169 °C
4) O=C1COc2ccc(C3=Nc4ccccc4SC3c3ccccc3Cl)cc2N1 (stereo unspecified) : 195 to 200 °C
5) NC1=Nc2ccc(OC(F)(F)F)cc2SC1 : 94 to 96 °C
6) Cc1ccc(-c2c(N)ncnc2Cl)cc1 : 168 to 171 °C
7) c1ccc(C2OC3(CCOCC3)c3ccccc32)cc1 (stereo unspecified) : 132 to 134 °C
8) COc1ccc(C=NO)c(Cl)c1O : 174 to 176 °C
9) CC(C)(C)C(O)(Cc1ccccc1)C(Cn1ccnc1)Oc1ccc(Cl)cc1 (stereo unspecified) : 179 to 181 °C
10) CCOP(=O)(OCC)C1Cc2cc(C(F)(F)F)cc3[nH]c(=O)c(=O)n(c23)C1 (stereo unspecified) : 253 °C
11) CO[Si]1(OC)CCCNCCN1 : 61 to 62 °C
12) COc1ccc(C2=NN(c3ccccc3)C(=O)[C@H]3CC=CC[C@@H]23)cc1OC (relative stereo) : 134 to 135 °C
13) C=CCn1c(C)c(C)c2cnnc(CCc3ccc(F)cc3)c21 : 123 to 124 °C
14) CCOC(=O)C(=O)Nc1cc(C(F)(F)F)c(Cl)cc1[N+](=O)[O-] : 96.5 to 97.5 °C
15) Nc1ccc(C2=NNC(=O)CC2)cc1N : 226 °C
16) Cc1cccc(NC(=O)NCC(=O)N(c2ccccc2)C(C(=O)OC(C)(C)C)c2cccc(Cl)c2)c1 (racemic) : 100 °C
17) c1ccc(-c2ccc3nc(C4(c5ccc6[nH]nnc6c5)N=c5ccccc5=N4)[nH]c3c2)cc1 : > 280 °C
18) COCc1nc2c(OC)c3c(=O)n(C)c(COC)nc3c(OC)c2c(=O)n1C : 223 to 224 °C
19) O=C1Cc2ccc(C3CCCC3)cc2O1 : 42 to 43 °C
20) CCCn1c(-c2ccc(-n3ccnc3)cc2)cnc1[C@H](Cc1ccccn1)N(C=O)c1cc2cc(C(F)(F)F)ccc2o1 : 92 to 98 °C
21) CCCCCCCCCCCCOc1cc(O)c(C(=O)c2ccccc2)c(OCCCCCCCCCCCC)c1 : 37 to 38 °C

----------
# reported melting point; entries follow
measured quantity: melting point

1) O=C(O)Cc1ccc2c(c1)Nc1ccccc1S2 : 202 °C
2) CC(=C1SC(=O)NC1=O)c1ccc(OCCOc2c(-c3ccccc3F)n(C)c3ccccc3c2=O)c(Cl)c1 : 220 to 222 °C
3) COc1cc(C(C)C(=O)NCC(COC(=O)C(C)(C)C)Cc2ccc(C(C)(C)C)cc2)ccc1NS(C)(=O)=O (centres undefined) : 54 to 57 °C
4) Cc1ccc(C2CC(=O)OC(=O)C2)cc1 : 160 to 162 °C
5) COC(=O)[C@@H](O)[C@H](CC(C)C)NC(=O)[C@H](Cc1c[nH]cn1)NC(=O)[C@H](Cc1cccc2ccccc12)NC(=O)OCc1ccccc1 : 110 to 114 °C
6) COc1cc(OC)cc(N2Cc3cnc(S(C)=O)nc3NC2=O)c1 (centres undefined) : 220 to 222 °C
7) COc1ccc(CCNC(=O)CC(NC(=O)CCNC(=O)c2ccc(C(=N)N)cc2)C(=O)O)cc1 (centres undefined) : 217 °C
8) C=CCOc1ccc2c(C)c(C#N)c(=O)oc2c1C : 172 °C
9) O=C1N(Cc2ccccc2)c2cc(Cl)ccc2N=C2CCCC12Cc1ccccc1 (centres undefined) : 139 to 141 °C
10) Cn1c(CC#N)ccc1C(=O)c1ccc(F)cc1 : 134 to 136 °C
11) NC(=O)c1ccc(N)nc1F : 236 to 237 °C
12) O=S(=O)(c1ccc(N2CCNCC2)cc1)n1ccc2cc(F)ccc21 : 77 to 78 °C
13) Cc1onc(-c2ccc(Cl)cc2)c1CO : 94 to 95 °C
14) Cn1ncnc1-c1cc(S(C)=O)c2[nH]c(=O)ccc2c1 (centres undefined) : 224 to 227 °C
15) CC(C)(C)c1cc(C2CC(=O)N(CCCCCCN3C(=O)CC(c4cc(C(C)(C)C)c(O)c(C(C)(C)C)c4)C3=O)C2=O)cc(C(C)(C)C)c1O (centres undefined) : 190 to 193 °C
16) O=C(O)Cc1cccc2c(=O)cc(-c3c(F)c(F)c(F)c(F)c3F)oc12 : 156 to 160 °C
17) O=S(=O)(N[C@@H]1C[C@@H](/C=C\CCCCO)N(S(=O)(=O)c2ccc(Cl)cc2)C1)c1ccc(Cl)cc1 : 108 to 109 °C
18) CCn1cc(C(=O)NC2Cc3ccccc3C2)c(=O)c2cnc(N3CCCC3)nc21 : 252 to 253 °C
19) CCCCCN(CCc1c[nH]c2ccccc12)C(=O)CCCC(=O)OC : 70 to 71 °C

----------
measured quantity: melting point

1) CCCOc1ccccc1-c1nc(NC(C)=O)cc(=O)[nH]1 : 230 to 231 °C
2) O=C(Nc1cccc(Br)n1)Nc1cccc2c1C1CC3(CCN1C2=O)SCCS3 (centres undefined) : 170 °C
3) CCCCc1cn(CCC2CC2)c(=O)n1Cc1ccc(-c2ccccc2-c2nnn[nH]2)nc1 : 182 to 183 °C
4) O=C(Oc1cc(OC(=O)c2ccccc2)c(Cl)cn1)c1ccccc1 : 124 to 125 °C
5) CN(C)C(=O)c1nnc(S)o1 : 185 to 187 °C
6) CC(C)N(C[C@H](O)[C@H](Cc1ccccc1)NC(=O)OCc1ccccc1)NC(=O)OC(C)(C)C : 114 to 115 °C
7) COc1cc2c(cc1OCc1ccccc1)CCCC(=O)N2Cc1cc(OC)c(OC)c(OC)c1 : 129 to 130 °C
8) COCCOc1cc(N(C)S(=O)(=O)c2ccccn2)c2[nH]c(C3=NCC(CC(=O)N(C)CCO)S3)cc2c1 (centres undefined) : 94 to 96 °C
9) Cc1c(NC(=O)c2ccc(OC[C@@H]3CCCO3)cc2)ccc2cc(CN[C@@H]3CCCC[C@H]3O)cnc12 : 142 to 143 °C
10) CCCCCCCCCCc1cc2c(s1)-n1c(C)nnc1CN=C2c1ccccc1C : 61 to 63 °C
11) Cc1nc2c(N)nc3c(c2n1CC(C)C)CCCC3 : 170 to 172 °C
12) CC(C)(C)c1nc2cc(N3CCSCC3)c(N)cc2s1 : 170 to 175 °C
13) Cc1cc2c(-c3ccccc3)c(C=O)n(C)c(=O)c2cc1C : 178 to 179 °C
14) Cc1cc(C)c2ncc(Br)n2n1 : 137 to 139 °C
15) CN(Cc1ccccc1)c1ncnc2c(N3CCOCC3)nc(N3CCC(NCc4ccccc4)CC3)nc12 : 103 to 106 °C
16) COC1(c2cccc(OCc3ccc4ccc(F)cc4c3)c2)CC(C)OC(C)C1 (centres undefined) : 77 °C
17) CS(=O)c1nnc(-c2ccc3occ(-c4ccc(OC(F)(F)F)cc4)c3c2)o1 (centres undefined) : 134 to 135 °C
18) O=C(N[C@@H](Cc1c[nH]c2ccccc12)C(=O)O)C(CS)C(F)(F)F (some centres undefined) : 144 to 147 °C
19) CC(C)n1c(CO)c(-c2ccc(F)cc2)c(-c2ccccc2)c1C(N)=O : 189 to 190 °C
20) O=C1c2ccccc2CN1C1CCNCC1 : 144 to 146 °C
21) NCCCCCCCCO : 48 to 53 °C
22) Cc1ccc(-c2ssc(=S)c2C)nn1 : 168 °C
23) COc1ccc2[nH]c(S(=O)Cc3ncc(C)c(N4CCCC4)c3Cl)nc2c1 (centres undefined) : 145 to 146 °C
24) CC(=O)OCCn1nc(-c2cc(C(C)(C)C)cc(C(C)(C)C)c2)c2cccnc21 : 115 to 116 °C
25) CC(C)c1nc(Cl)c([N+](=O)[O-])c(Cl)n1 : 32 °C
26) C#CCNC(=O)c1ncn2c1CN(C)C(=O)c1sccc1-2 : 275 to 277 °C
27) COC(=O)c1ccc(OCCNC(=O)C2Cc3ccccc3N2S(=O)(=O)c2ccc(-c3ccc(F)cc3)cc2)cc1C(F)(F)F (centres undefined) : 62 to 70 °C
28) CC(C)Cn1c(C(=O)O)c(-c2ccccc2F)c2cc(OCc3ccccc3)ccc2c1=O : 178 to 179 °C
29) CS(=O)(=O)c1ccc(-c2nc(C(F)(F)F)nc(NN)c2-c2ccc(Cl)cc2)cc1 : 266 to 269 °C
30) Cc1nc2c(N)nc3c(c2n1CCCCS(=O)(=O)c1ccc(F)cc1)CCCC3 : 159 to 162 °C
31) COc1ccc(Cc2cc3cccc(-c4cccc(C(=O)O)c4)c3o2)cc1OC : 122 to 123 °C
32) Cc1ccc(C(=O)c2cnoc2C2CC2)cc1S(C)(=O)=O : 126 to 128 °C
33) CSC(=N)N(C#N)C(c1ccccn1)c1ccccc1C (centres undefined) : 162 to 164 °C
34) CC(C)CN(OCc1ccccc1)C(=O)Nc1ccccc1 : 85 to 87 °C
35) Cn1c(CNCC(C)(C)S(C)(=O)=O)cc2cc(NC(=O)c3ccc(OCC4CC4)cc3)ccc21 : 168 to 169 °C
36) Cc1c(C(=O)O)cnn1-c1ccc(C(F)(F)F)cc1 : 181 °C
37) Cc1cn2cccc(OCc3c(Cl)ccc(S(=O)(=O)N4CCC[C@H]4C(=O)NCCCNC(=O)c4ccc(C=NN)cc4)c3Cl)c2n1 : 120 to 125 °C
38) O=C(Nc1ccc(F)cc1F)C1c2ccccc2COc2ccc(Br)cc21 (centres undefined) : 189 to 191 °C
39) COc1cc2c(cc1OC)CCCCC(C(=O)N1CCN(C(=O)c3cc(OC)c(OC)c(OC)c3)CC1)=C2 : 170 to 171 °C
